- assay.method.text: Antiviral activity was evaluated in mitogen-stimulated human peripheral blood mononuclear (PBM) cells infected with HIV-1 strain LAV.
- Assay type: functional
pEC50: −log10 of the molar value.
Rule: pEC50 under 5 gives false (0), otherwise true (1).

Examples with answers:
Nc1nc(Cl)nc2c1ncn2[C@@H]1CO[C@@H](CO)O1 false (0)
OC[C@@H]1OC[C@H](n2cnc3c(Cl)ncnc32)O1 false (0)
Cc1cn([C@H]2C[C@H](N=[N+]=[N-])[C@@H](CO)O2)c(=O)[nH]c1=O true (1)
OC[C@@H]1OC[C@H](n2cnc3c(S)ncnc32)O1 false (0)
CNc1nc(Cl)nc2c1ncn2[C@H]1CO[C@@H](CO)O1 false (0)

Problem: Does the reported pEC50 for Nc1nc(Cl)nc2c1ncn2[C@H]1CO[C@@H](CO)O1 fall at or above the 5 mark?
Solution: true (1)

---

- System: CCRF-CEM
- assay.method.text: Cytotoxicity against uninfected PHA-stimulated CEM cells was determined.
- Assay type: cell-based
- test.context: Homo sapiens
readout.type: IC50

Problem: Supply IC50 value. Item: OC[C@@H]1OC[C@@H](n2cnc3c(Cl)ncnc32)O1
Solution: 57.6 µM

Problem: Supply IC50 value. Item: CNc1nc(Cl)nc2c1ncn2[C@H]1CO[C@@H](CO)O1
Solution: > 100 µM

Problem: Supply IC50 value. Item: Cc1cn([C@H]2C[C@H](N=[N+]=[N-])[C@@H](CO)O2)c(=O)[nH]c1=O
Solution: 30.9 µM

Problem: Supply IC50 value. Item: Nc1nc(Cl)nc2c1ncn2[C@H]1CO[C@@H](CO)O1
Solution: > 100 µM

Problem: Supply IC50 value. Item: OC[C@@H]1OC[C@H](n2cnc3c(Cl)ncnc32)O1
Solution: > 100 µM

Problem: Supply IC50 value. Item: OC[C@@H]1OC[C@H](n2cnc3c(S)ncnc32)O1
Solution: > 100 µM

Problem: Supply IC50 value. Item: Nc1nc(Cl)nc2c1ncn2[C@@H]1CO[C@@H](CO)O1
Solution: > 100 µM
